- TARGET: human Vitamin D Receptor (VDR), VDR (gene 7421) (UniProt P11473)
- Sequence (P11473 whole entry, looked up): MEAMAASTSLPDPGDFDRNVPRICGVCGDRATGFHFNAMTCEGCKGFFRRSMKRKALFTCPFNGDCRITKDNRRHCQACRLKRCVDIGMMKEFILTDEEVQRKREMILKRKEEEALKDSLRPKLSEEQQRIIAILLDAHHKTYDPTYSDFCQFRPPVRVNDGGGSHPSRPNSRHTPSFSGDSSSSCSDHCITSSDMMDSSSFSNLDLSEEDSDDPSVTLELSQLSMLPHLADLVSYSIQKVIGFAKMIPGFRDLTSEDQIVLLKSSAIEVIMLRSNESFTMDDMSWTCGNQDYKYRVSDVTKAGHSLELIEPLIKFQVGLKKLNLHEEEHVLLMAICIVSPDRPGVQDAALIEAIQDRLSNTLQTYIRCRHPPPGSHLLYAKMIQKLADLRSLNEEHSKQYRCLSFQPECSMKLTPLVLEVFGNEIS
- TEST_METHOD_NOTES: ATG_VDR_TRANS: Attagene TRANS-FACTORIAL HepG2 Assay for human Vitamin D Receptor (VDR) (AID 2283022)
- Experimental: ATG_TRANS is a cell-based, multiplexed-readout assay that uses HepG2, a human liver cell line, with measurements taken at 24 hours after chemical dosing in a 24-well plate.ATG_VDR_TRANS is one of 30 assay component(s) measured or calculated from the ATG_TRANS assay. […] This assay endpoint, ATG_VDR_TRANS, was analyzed in the positive analysis fitting direction relative to DMSO as the negative control and baseline of activity. […]
Inconclusive results are not listed. Active and inactive are the calls of the source. Rule for the calls: active = hit-call score of the fitted dose curve at least 0.9, where 1 is the maximum; inconclusive = response in the unintended direction; inactive = score below 0.9.
Give one outcome, nothing more. List: 1.0 (active), 0.0 (inactive)

Some solved cases for reference:
CCCOc1sc(C(=O)N2CCC(c3cc(CN)ccc3F)CC2)c(C)c1Br; 0.0
CCN(CC)CCNc1ccc(CNC=O)c2sc3ccc(OC)cc3c(=O)c12; 1.0
CCCCCCCCCCCCCCCS(=O)(=O)Oc1ccccc1; 0.0
COC(=O)CCCCC(=O)OC; 0.0
Cc1oc(-c2ccccc2)nc1CCOc1ccc(C[C@H](Nc2ccccc2C(=O)c2ccccc2)C(=O)O)cc1; 0.0
ClC1=C(Cl)C(Cl)(Cl)C(Cl)=C1Cl; 0.0

IN: Any idea what this test logged for Oc1cc2ccccc2c2ccccc12 ?
OUT: 0.0

IN: Could you do the same for CC(=O)NC1(c2cccc(F)c2)CCN(CC[C@@]2(c3ccc(Cl)c(Cl)c3)CN(c3ccccc3)C(=O)CO2)CC1 , please?
OUT: 0.0

IN: Could you do the same for C[C@@H]1C[C@H]2[C@@H]3CCC4=CC(=O)C=C[C@]4(C)[C@@]3(F)[C@@H](O)C[C@]2(C)[C@@]1(O)C(=O)COP(=O)(O)O , please?
OUT: 0.0

IN: Could you do the same for CN1CCC[C@H]1c1cccnc1 , please?
OUT: 0.0
